Species: Rattus norvegicus
assayText: Open TG-GATES - Regimen: Single
Type: toxicity, organism-based, Sprague-Dawley
Parameters: regimen Single, gender Male, age 6 weeks
statedConditions: in vivo, po, 1000 mg/kg, 24 h, tissue Blood, route gavage, dose level High
measuredQuantity: Ht (%)

lineNotation	measuredQuantity	reportedValue
COC(=O)C1=C(C)NC(C)=C(C(=O)OC)C1c1ccccc1[N+](=O)[O-]	Ht	39.6
Cc1nnc2n1-c1ccc(Cl)cc1C(c1ccccc1Cl)=NC2	Ht	41.6
CNC(=C[N+](=O)[O-])NCCSCc1ccc(CN(C)C)o1	Ht	39.1
CN/C(=N/CCSCc1nc[nH]c1C)NC#N	Ht	39
O=C(OC[C@H]1O[C@@H](OC(=O)c2cc(O)c(O)c(OC(=O)c3cc(O)c(O)c(O)c3)c2)[C@H](OC(=O)c2cc(O)c(O)c(OC(=O)c3cc(O)c(O)c(O)c3)c2)[C@@H](OC(=O)c2cc(O)c(O)c(OC(=O)c3cc(O)c(O)c(O)c3)c2)[C@@H]1OC(=O)c1cc(O)c(O)c(OC(=O)c2cc(O)c(O)c(O)c2)c1)c1cc(O)c(O)c(OC(=O)c2cc(O)c(O)c(O)c2)c1	Ht	38.2

====

Species on record: Rattus norvegicus
assayText: Open TG-GATES - Regimen: Daily Repeat
Assay type: toxicity, organism-based, Sprague-Dawley
Parameters: regimen Daily Repeat, gender Male, age 6 weeks
statedConditions: in vivo, po, 300 mg/kg, […], tissue Plasma, route gavage, dose level Middle, time 7 day
Just a reminder that ties go to not fulfilled: only ALP strictly below 1000 IU/L counts as fulfilled.

lineNotation	class
CCOc1ccc(NC(C)=O)cc1	not fulfilled
CN/C(=N/CCSCc1nc[nH]c1C)NC#N	fulfilled
COC(=O)C1=C(C)NC(C)=C(C(=O)OC)C1c1ccccc1[N+](=O)[O-]	not fulfilled
Cc1nnc2n1-c1ccc(Cl)cc1C(c1ccccc1Cl)=NC2	not fulfilled
CNC(=C[N+](=O)[O-])NCCSCc1ccc(CN(C)C)o1	fulfilled
O=C(OC[C@H]1O[C@@H](OC(=O)c2cc(O)c(O)c(OC(=O)c3cc(O)c(O)c(O)c3)c2)[C@H](OC(=O)c2cc(O)c(O)c(OC(=O)c3cc(O)c(O)c(O)c3)c2)[C@@H](OC(=O)c2cc(O)c(O)c(OC(=O)c3cc(O)c(O)c(O)c3)c2)[C@@H]1OC(=O)c1cc(O)c(O)c(OC(=O)c2cc(O)c(O)c(O)c2)c1)c1cc(O)c(O)c(OC(=O)c2cc(O)c(O)c(O)c2)c1	fulfilled

====

Species on record: Rattus norvegicus
assayText: Open TG-GATES - Regimen: Daily Repeat
Assay type: toxicity, organism-based, Sprague-Dawley
Parameters: regimen Daily Repeat, gender Male, age 6 weeks
statedConditions: in vivo, po, 0 mg/kg, […], tissue Plasma, route gavage, dose level Control, time 28 day
Listed molecules paired with reported TC

molecule	scaleUnit	TC
CCCc1cc(=O)[nH]c(=S)[nH]1	mg/dL	76.6
Cc1nnc2n1-c1ccc(Cl)cc1C(c1ccccc1Cl)=NC2	mg/dL	72.8
CC(C)NNC(=O)c1ccncc1	mg/dL	70.8
COC(=O)C1=C(C)NC(C)=C(C(=O)OC)C1c1ccccc1[N+](=O)[O-]	mg/dL	75
NC1=NC(=O)C(c2ccccc2)O1 (stereo not given)	mg/dL	77.4

====

Species on record: Rattus norvegicus
assayText: Open TG-GATES - Regimen: Single
Type: toxicity, organism-based, Sprague-Dawley
Set-up: regimen Single, gender Male, age 6 weeks
statedConditions: in vivo, po, 100 mg/kg, 3 h, tissue Plasma, route gavage, dose level Low
measuredQuantity: IP (mg/dL)

molecule	reportedValue
COC(=O)C1=C(C)NC(C)=C(C(=O)OC)C1c1ccccc1[N+](=O)[O-] [NIFEDIPINE]	9
CN/C(=N/CCSCc1nc[nH]c1C)NC#N [CIMETIDINE]	9.5
CNC(=C[N+](=O)[O-])NCCSCc1ccc(CN(C)C)o1 [RANITIDINE]	8.7
Cc1nnc2n1-c1ccc(Cl)cc1C(c1ccccc1Cl)=NC2 [TRIAZOLAM]	10.2
O=C(OC[C@H]1O[C@@H](OC(=O)c2cc(O)c(O)c(OC(=O)c3cc(O)c(O)c(O)c3)c2)[C@H](OC(=O)c2cc(O)c(O)c(OC(=O)c3cc(O)c(O)c(O)c3)c2)[C@@H](OC(=O)c2cc(O)c(O)c(OC(=O)c3cc(O)c(O)c(O)c3)c2)[C@@H]1OC(=O)c1cc(O)c(O)c(OC(=O)c2cc(O)c(O)c(O)c2)c1)c1cc(O)c(O)c(OC(=O)c2cc(O)c(O)c(O)c2)c1 [TANNIC ACID]	10.2

====

Listed compounds paired with reported KIDNEY_L
Species: Rattus norvegicus
assayText: Open TG-GATES - Regimen: Single
Assay type: toxicity, organism-based, Sprague-Dawley
Parameters: regimen Single, gender Male, age 6 weeks
statedConditions: in vivo, po, 1000 mg/kg, 24 h, tissue Kidney, route gavage, dose level High

lineNotation	scaleUnit	KIDNEY_L
CNC(=C[N+](=O)[O-])NCCSCc1ccc(CN(C)C)o1	g	1
Cc1nnc2n1-c1ccc(Cl)cc1C(c1ccccc1Cl)=NC2	g	0.9
CN/C(=N/CCSCc1nc[nH]c1C)NC#N	g	1
COC(=O)C1=C(C)NC(C)=C(C(=O)OC)C1c1ccccc1[N+](=O)[O-]	g	0.8
O=C(OC[C@H]1O[C@@H](OC(=O)c2cc(O)c(O)c(OC(=O)c3cc(O)c(O)c(O)c3)c2)[C@H](OC(=O)c2cc(O)c(O)c(OC(=O)c3cc(O)c(O)c(O)c3)c2)[C@@H](OC(=O)c2cc(O)c(O)c(OC(=O)c3cc(O)c(O)c(O)c3)c2)[C@@H]1OC(=O)c1cc(O)c(O)c(OC(=O)c2cc(O)c(O)c(O)c2)c1)c1cc(O)c(O)c(OC(=O)c2cc(O)c(O)c(O)c2)c1	g	0.9

====

Species: Rattus norvegicus
assayText: Open TG-GATES - Regimen: Single
Format: toxicity, organism-based, Sprague-Dawley
Parameters: regimen Single, gender Male, age 6 weeks
statedConditions: in vivo, po, 300 mg/kg, 9 h, tissue Plasma, route gavage, dose level Middle
Listed compounds paired with reported GLC
measuredQuantity: GLC (mg/dL)

lineNotation	reportedValue
CN/C(=N/CCSCc1nc[nH]c1C)NC#N	189.8
Cc1nnc2n1-c1ccc(Cl)cc1C(c1ccccc1Cl)=NC2	188
COC(=O)C1=C(C)NC(C)=C(C(=O)OC)C1c1ccccc1[N+](=O)[O-]	193.4
O=C(OC[C@H]1O[C@@H](OC(=O)c2cc(O)c(O)c(OC(=O)c3cc(O)c(O)c(O)c3)c2)[C@H](OC(=O)c2cc(O)c(O)c(OC(=O)c3cc(O)c(O)c(O)c3)c2)[C@@H](OC(=O)c2cc(O)c(O)c(OC(=O)c3cc(O)c(O)c(O)c3)c2)[C@@H]1OC(=O)c1cc(O)c(O)c(OC(=O)c2cc(O)c(O)c(O)c2)c1)c1cc(O)c(O)c(OC(=O)c2cc(O)c(O)c(O)c2)c1	191.4
CNC(=C[N+](=O)[O-])NCCSCc1ccc(CN(C)C)o1	204.6

====

Species on record: Rattus norvegicus
assayText: Open TG-GATES - Regimen: Daily Repeat
Assay type: toxicity, organism-based, Sprague-Dawley
Design: regimen Daily Repeat, gender Male, age 6 weeks
statedConditions: in vivo, po, 100 mg/kg, […], tissue Plasma, route gavage, dose level Low, time 28 day
measuredQuantity: gamma-GTP (IU/L)

lineNotation	measuredQuantity	reportedValue
CNC(=C[N+](=O)[O-])NCCSCc1ccc(CN(C)C)o1	gamma-GTP	1.2
CN/C(=N/CCSCc1nc[nH]c1C)NC#N	gamma-GTP	1.2
COC(=O)C1=C(C)NC(C)=C(C(=O)OC)C1c1ccccc1[N+](=O)[O-]	gamma-GTP	1
Cc1nnc2n1-c1ccc(Cl)cc1C(c1ccccc1Cl)=NC2	gamma-GTP	0.8
O=C(OC[C@H]1O[C@@H](OC(=O)c2cc(O)c(O)c(OC(=O)c3cc(O)c(O)c(O)c3)c2)[C@H](OC(=O)c2cc(O)c(O)c(OC(=O)c3cc(O)c(O)c(O)c3)c2)[C@@H](OC(=O)c2cc(O)c(O)c(OC(=O)c3cc(O)c(O)c(O)c3)c2)[C@@H]1OC(=O)c1cc(O)c(O)c(OC(=O)c2cc(O)c(O)c(O)c2)c1)c1cc(O)c(O)c(OC(=O)c2cc(O)c(O)c(O)c2)c1	gamma-GTP	2
CCOc1ccc(NC(C)=O)cc1	gamma-GTP	1

====

Organism: Rattus norvegicus
assayText: Open TG-GATES - Regimen: Single
Format: toxicity, organism-based, Sprague-Dawley
Design: regimen Single, gender Male, age 6 weeks
statedConditions: in vivo, po, 1000 mg/kg, 6 h, tissue Plasma, route gavage, dose level High
measuredQuantity: BUN

lineNotation	reportedValue
O=C(OC[C@H]1O[C@@H](OC(=O)c2cc(O)c(O)c(OC(=O)c3cc(O)c(O)c(O)c3)c2)[C@H](OC(=O)c2cc(O)c(O)c(OC(=O)c3cc(O)c(O)c(O)c3)c2)[C@@H](OC(=O)c2cc(O)c(O)c(OC(=O)c3cc(O)c(O)c(O)c3)c2)[C@@H]1OC(=O)c1cc(O)c(O)c(OC(=O)c2cc(O)c(O)c(O)c2)c1)c1cc(O)c(O)c(OC(=O)c2cc(O)c(O)c(O)c2)c1	11.4 mg/dL
CN/C(=N/CCSCc1nc[nH]c1C)NC#N	8.2 mg/dL
Cc1nnc2n1-c1ccc(Cl)cc1C(c1ccccc1Cl)=NC2	10 mg/dL
CNC(=C[N+](=O)[O-])NCCSCc1ccc(CN(C)C)o1	9.4 mg/dL
COC(=O)C1=C(C)NC(C)=C(C(=O)OC)C1c1ccccc1[N+](=O)[O-]	40.2 mg/dL

Taken from ChEMBL document CHEMBL3885861.
